These entries and their values trace back to paper PMC11234460.

Below, each entry is listed with its recorded Kd.
molecular target: T1, LBD fragment of human Nur77 (residues 351–598) (human, UniProt P22736 351-598); assay: MST; purified Nur77 LBD labelled with fluorescent dye; peptides 0.1-100 × 10^-6 M; PBST (0.05% Tween-20); 20 min at room temperature; Dianthus (NanoTemper); conditions: both partners purified
T1 construct: Labelled with a fluorescent dye for MST; amine-coupled to the chip for SPR; also called Nur77 LBD; Nur77-LBD; source: E. coli BL21(DE3), purified (Ni-NTA, Superdex 200 gel filtration)
T1 sequence (P22736 351-598): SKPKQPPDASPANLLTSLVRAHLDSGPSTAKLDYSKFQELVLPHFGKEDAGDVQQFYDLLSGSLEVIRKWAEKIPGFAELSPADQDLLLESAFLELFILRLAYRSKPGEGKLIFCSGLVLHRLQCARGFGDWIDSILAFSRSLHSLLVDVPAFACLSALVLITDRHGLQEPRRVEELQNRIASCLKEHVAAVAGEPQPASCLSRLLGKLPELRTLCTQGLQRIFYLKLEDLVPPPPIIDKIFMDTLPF
Bridges are numbered along the chain shown (N, C = ends). Where no end group is shown, it is not given here. [ ]: non-standard residue; d: D form. S5 = C=CCCC[C@](C)(N)C(=O)O

Below, 2 binders whose answers are already recorded.
{"BINDER": "CEGCKGFFRRTIRL-NH2 (peptide, UniProt P37231 156-169, looked up, cysteine pairing not given here, PPARγ, residues Cys156-Leu169 of the DBD; Made on Rink amide resin, so probably a C-terminal amide; source: synthetic peptide (Fmoc SPPS on Rink Amide MBHA resin)) [CL14, α-helix of PPARγ (residues Cys156-Leu169)]", "MEASURE": "Kd", "ASSAY_RESULT": "27.2 µM"}
{"BINDER": "SRNKCQYCRFQKCLAV-NH2 (peptide, UniProt P37231 186-201, looked up, cysteine pairing not given here, PPARγ, residues Ser186-Val201 of the DBD; Made on Rink amide resin, so probably a C-terminal amide; source: synthetic peptide (Fmoc SPPS on Rink Amide MBHA resin)) [SV16, α-helix of PPARγ (residues Ser186-Val201)]", "MEASURE": "Kd", "ASSAY_RESULT": "156 µM"}

*Q* Provide one value: measured Kd of CEGCKGFFRRTIRY-NH2 (peptide, UniProt P37231 156-169, looked up, cysteine pairing not given here, PPARγ, residues Cys156-Leu169, with Leu169 mutated to Tyr; source: synthetic peptide (Fmoc SPPS on Rink Amide MBHA resin)) [CY14 (CL14 with Leu169 mutated to Tyr)]
*A* 8.7 µM

*Q* Provide one value: measured Kd of CEGCKGF[S5]RRT[S5]RY-NH2 (staple 8-12; cysteine pairing not given here) [S-CY14 (stapled CY14)]
*A* 3.96 µM
